For each of the compounds below, state its IC50.
System: Trypanosoma brucei rhodesiense
Experiment: Antitrypanosomal activity against Trypanosoma brucei rhodesiense STIB 900 assessed as parasite growth inhibition after 72 hrs by resazurin assay
Type: functional, organism-based
Conditions: STIB 900, 72 h
Include the unit after the number when you answer.

// known answers, use as guide
{"RECORD_SMILES": "CC(C)=CCC/C(C)=C/CC/C(C)=C/CC/C(C)=C/C[n+]1cn(C)c2nc[nH]/c(=N\\O)c21.[Br-]", "STUDY_TARGET": "Trypanosoma brucei rhodesiense", "IC50": "500 nM"}
{"RECORD_SMILES": "CC(C)=CCC/C(C)=C/C[n+]1cn(C)c2nc[nH]/c(=N\\O)c21.[Br-]", "STUDY_TARGET": "Trypanosoma brucei rhodesiense", "IC50": "8060 nM"}

Here is another compound to look at.
Exam item: Param readout= IC50; system= Trypanosoma brucei rhodesiense; entry= Cc1ccc(C(=O)Nc2ccc(S(=O)(=O)O)c3cc(S(=O)(=O)O)cc(S(=O)(=O)O)c23)cc1NC(=O)c1cccc(NC(=O)Nc2cccc(C(=O)Nc3cc(C(=O)Nc4ccc(S(=O)(=O)O)c5cc(S(=O)(=O)O)cc(S(=O)(=O)O)c45)ccc3C)c2)c1 ; returns value.
Marked response: 30 nM

----------
Test system: Trypanosoma brucei
Experiment: Antitrypanosomal activity against suramin-sensitive Trypanosoma brucei Squib 427 assessed as parasite growth inhibition after 72 hrs by resazurin assay
Format: functional, organism-based
Conditions: Squib 427, 72 h
OBSERVED_PROPERTY: IC50

// known answers, use as guide
{"RECORD_SMILES": "CC(C)=CCC/C(C)=C/CC/C(C)=C/CC/C(C)=C/C[n+]1cn(C)c2nc[nH]/c(=N\\O)c21.[Br-]", "IC50": "2010 nM"}
{"RECORD_SMILES": "CC(C)=CCC/C(C)=C/C[n+]1cn(C)c2nc[nH]/c(=N\\O)c21.[Br-]", "IC50": "28000 nM"}

Here is another compound to look at.
Exam item: Consider the compound Cc1ccc(C(=O)Nc2ccc(S(=O)(=O)O)c3cc(S(=O)(=O)O)cc(S(=O)(=O)O)c23)cc1NC(=O)c1cccc(NC(=O)Nc2cccc(C(=O)Nc3cc(C(=O)Nc4ccc(S(=O)(=O)O)c5cc(S(=O)(=O)O)cc(S(=O)(=O)O)c45)ccc3C)c2)c1 and give its measured IC50.
Marked response: 20 nM

----------
For each of the molecules below, state its pIC50.
Test system: Escherichia coli
Experiment: Antibacterial activity against Escherichia coli ATCC 8739 after 17 hrs by resazurin dye based fluorimetric assay
Format: functional, organism-based
Conditions: ATCC 8739, ATCC 8739, 17 h
pIC50: −log10 of the molar value.

// known answers, use as guide
{"RECORD_SMILES": "CC(C)=CCC/C(C)=C/C[n+]1cn(C)c2nc[nH]/c(=N\\O)c21.[Br-]", "STUDY_TARGET": "Escherichia coli", "OBSERVED_PROPERTY": "pIC50", "OBSERVED_RESULT": "< 4.19"}
{"RECORD_SMILES": "C[C@H]1c2cccc(O)c2C(=O)C2=C(O)[C@]3(O)C(=O)C(C(N)=O)=C(O)[C@@H](N(C)C)[C@@H]3[C@@H](O)[C@@H]21", "STUDY_TARGET": "Escherichia coli", "OBSERVED_PROPERTY": "pIC50", "OBSERVED_RESULT": 6.24}

Exam item: Consider the molecule CC(C)=CCC/C(C)=C/CC/C(C)=C/CC/C(C)=C/C[n+]1cn(C)c2nc[nH]/c(=N\O)c21.[Br-] and give its measured pIC50.
Marked response: < 4.19

----------
Test system: Staphylococcus aureus
Test: Antibacterial activity against Staphylococcus aureus ATCC 6538 after 17 hrs by resazurin dye based fluorimetric assay
Type: functional, organism-based
Settings: ATCC 6538, 17 h
OBSERVED_PROPERTY: IC50

{"RECORD_SMILES": "C[C@H]1c2cccc(O)c2C(=O)C2=C(O)[C@]3(O)C(=O)C(C(N)=O)=C(O)[C@@H](N(C)C)[C@@H]3[C@@H](O)[C@@H]21", "IC50": "30 nM"}
{"RECORD_SMILES": "CC(C)=CCC/C(C)=C/C[n+]1cn(C)c2nc[nH]/c(=N\\O)c21.[Br-]", "IC50": "> 64000 nM"}

Here is another compound to look at.
Exam item: Consider the compound CC(C)=CCC/C(C)=C/CC/C(C)=C/CC/C(C)=C/C[n+]1cn(C)c2nc[nH]/c(=N\O)c21.[Br-] and give its measured IC50.
Marked response: 1890 nM

----------
Test: Cytotoxicity against human MRC5 SV2 cells after 3 days by resazurin dye based fluorescence assay
Format: cell-based
Conditions: MRC-5 SV2, 72 h
For each of the molecules below, state its pIC50.
Answers are plain numbers, as −log10 of the molar value.

{"MOLECULE": "CC(C)=CCC/C(C)=C/CC/C(C)=C/CC/C(C)=C/C[n+]1cn(C)c2nc[nH]/c(=N\\O)c21.[Br-]", "OBSERVED_PROPERTY": "pIC50", "OBSERVED_RESULT": 5.72}

Here is another molecule to look at.
Exam item: Consider the molecule CC/C(=C(\c1ccccc1)c1ccc(OCCN(C)C)cc1)c1ccccc1 [TAMOXIFEN] and give its measured pIC50.
Marked response: 4.95

The origin of these recorded values is ChEMBL document CHEMBL4330137.
